System: Barnyard Grass
Experiment: Postemergent activity
Format: in vivo
Conditions: 250 ppm
# % Control per entry
Hi! Could you send only the number? It should be in %, unit omitted.

molecule: C=CC(=O)C(C)Oc1ccc(Oc2ccc(Br)cc2F)cc1 (centres unmarked)
% Control / %: 30

molecule: CCOC(=O)CC(O)C(C)Oc1ccc(Oc2ccc(Br)cc2F)cc1 (centres unmarked)
% Control / %: 100

molecule: CC(=O)CC(O)C(C)Oc1ccc(Oc2ccc(Br)cc2F)cc1 (centres unmarked)
% Control / %: 0

molecule: COC(=O)C=C(OC)C(C)Oc1ccc(Oc2ccc(Br)cc2F)cc1 (centres unmarked)
% Control / %: 0

Please find the next molecule below.
Look up % Control: CC(=O)C(C(C)=O)C(=O)C(C)Oc1ccc(Oc2ccc(Br)cc2F)cc1 (centres unmarked) 100

* * *

System: Johnson Grass
Assay: Preemergent activity
Assay type: in vivo
Settings: Sorghum halepense, pre-emergence; 0.14 kgs/hectare; read-out: Preemergence Control
Method: In a representative operation, 2-[4-(2-fluoro-4-trifluoromethylphenoxy)phenoxy]propionic acid methyl ester, to be utilized in a series of tests, is dissolved in acetone to one half of the final volume (twice the final concentration) to be used and the acetone solution in each case is admixed with an equal volume of water containing 0.1 percent by weight of Tween-20 surface active material (Tween-20 is a trademark of Atlas Chemical Company). […]
quantity: pest or weed control at 140 g/ha (%)
Hi! Could you send only the number? It should be in %, unit omitted.

Look up pest or weed control at 140 g/ha: CCCCOC(=O)C(C)Oc1ccc(Oc2ccc(Br)cc2F)cc1 (stereo not drawn) 0

Continue with Cc1cc(Cl)ccc1NC(=O)C(C)Oc1ccc(Oc2ccc(Br)cc2F)cc1 (stereo not drawn) 0

Continue with C#CCOC(=O)C(C)Oc1ccc(Oc2ccc(Br)cc2F)cc1 (stereo not drawn) 20

* * *

# plant injury at 250 ppm per entry
Test system: Wheat
Assay: Postemergent activity
Assay type: in vivo
Details: Triticum aestivum, post-emergence, 336 h; 250 ppm; read-out: % Control
Method: Representative compositions of the present invention were evaluated for the postemergence control of species of plants listed in Table A. In these evaluations, pots of the plant species listed in Table A, grown to a height of about 10 cms, were used. […] Two weeks after treatment, the pots were examined for plant growth and evaluated on a scale of 0 to 100 where 0 represents no effect and 100 represents complete kill. […]

compound: COC(=O)C(C)Oc1ccc(Oc2ccc(Br)cc2F)cc1 (racemic)
quantity: plant injury at 250 ppm
value: 0%

compound: COC(=O)[C@@H](C)Oc1ccc(Oc2ccc(Br)cc2F)cc1 [4-Bromo-(R-Enantiomer)]
quantity: plant injury at 250 ppm
value: 100%

compound: COC(=O)C=C(OC)C(C)Oc1ccc(Oc2ccc(Br)cc2F)cc1 (stereo not shown)
quantity: plant injury at 250 ppm
value: 0%

Please find the next compound below.
Look up plant injury at 250 ppm: C=CC(=O)C(C)Oc1ccc(Oc2ccc(Br)cc2F)cc1 (stereo not shown) 0%

* * *

# % Control per entry
System: Barnyard Grass
Assay: Postemergent activity
Assay type: in vivo
Settings: 7.8 ppm
Hi! Could you send only the number? It should be in %, unit omitted.

// worked examples, % Control included
compound: CC(=O)CC(O)C(C)Oc1ccc(Oc2ccc(Br)cc2F)cc1 (stereo not drawn)
measured on: Barnyard Grass
quantity: % Control
value: 0

compound: COC(=O)C(C)Oc1ccc(Oc2ccc(C(F)(F)F)cc2F)cc1 (stereo not drawn)
measured on: Barnyard Grass
quantity: % Control
value: 100

compound: C=CC(=O)C(C)Oc1ccc(Oc2ccc(Br)cc2F)cc1 (stereo not drawn)
measured on: Barnyard Grass
quantity: % Control
value: 0

compound: CC(=O)C(C(C)=O)C(=O)C(C)Oc1ccc(Oc2ccc(Br)cc2F)cc1 (stereo not drawn)
measured on: Barnyard Grass
quantity: % Control
value: 0

compound: COC(=O)C=C(OC)C(C)Oc1ccc(Oc2ccc(Br)cc2F)cc1 (stereo not drawn)
measured on: Barnyard Grass
quantity: % Control
value: 0

Please find the next compound below.
Look up % Control: CCOC(=O)CC(O)C(C)Oc1ccc(Oc2ccc(Br)cc2F)cc1 (stereo not drawn) 0

* * *

Test system: Wild Oats
Assay: Postemergent activity
Format: in vivo
Details: Avena fatua, post-emergence, 336 h; 31.25 ppm; read-out: % Control
quantity: pest or weed control at 31.25 ppm
# include the unit after the value

// worked examples, pest or weed control at 31.25 ppm included
compound: COC(=O)C(C)Oc1ccc(Oc2ccc(C(F)(F)F)cc2F)cc1 (stereo not shown)
pest or weed control at 31.25 ppm: 100%
//
compound: COC(=O)C(C)Oc1ccc(Oc2ccc(I)cc2F)cc1 (stereo not shown)
pest or weed control at 31.25 ppm: 0%
//
compound: COC(=O)C(C)Oc1ccc(Oc2ccc(Br)cc2F)cc1 (racemic)
pest or weed control at 31.25 ppm: 100%

Please find the next compound below.
Look up pest or weed control at 31.25 ppm: COC(=O)[C@@H](C)Oc1ccc(Oc2ccc(Br)cc2F)cc1 [4-Bromo-(R-Enantiomer)] 90%

* * *

Tested on: Crabgrass
Assay: Postemergent activity
Type: in vivo
Conditions: 31.2 ppm
# % Control per entry
Hi! Could you send only the number? It should be in %, unit omitted.

compound: C=CC(=O)C(C)Oc1ccc(Oc2ccc(Br)cc2F)cc1 (centres unmarked)
% Control / %: 0

compound: CCOC(=O)CC(O)C(C)Oc1ccc(Oc2ccc(Br)cc2F)cc1 (centres unmarked)
% Control / %: 20

Query % Control on Crabgrass for CC(=O)C(C(C)=O)C(=O)C(C)Oc1ccc(Oc2ccc(Br)cc2F)cc1 (centres unmarked) 100

Continue with COC(=O)C=C(OC)C(C)Oc1ccc(Oc2ccc(Br)cc2F)cc1 (centres unmarked) 20

Continue with CC(=O)CC(O)C(C)Oc1ccc(Oc2ccc(Br)cc2F)cc1 (centres unmarked) 0

* * *

Test system: Wheat
Experiment: Preemergent activity
Type: in vivo
Conditions: Triticum aestivum, pre-emergence; 1.12 kgs/hectare; read-out: Preemergence Control
# plant injury at 1120 g/ha per entry
Hi! Could you send only the number? It should be in %, unit omitted.

molecule: C=CCOC(=O)C(C)Oc1ccc(Oc2ccc(Br)cc2F)cc1 (centres unmarked) [OCH2 CCH2]
unit info: %
plant injury at 1120 g/ha: 70

molecule: CC(Oc1ccc(Oc2ccc(Br)cc2F)cc1)C(=O)O (centres unmarked) [OH]
unit info: %
plant injury at 1120 g/ha: 30

molecule: COc1cccc(NC(=O)C(C)Oc2ccc(Oc3ccc(Br)cc3F)cc2)c1 (centres unmarked)
unit info: %
plant injury at 1120 g/ha: 0

molecule: CCCCOC(=O)C(C)Oc1ccc(Oc2ccc(Br)cc2F)cc1 (centres unmarked) [O(CH2)3 CH3]
unit info: %
plant injury at 1120 g/ha: 30

Please find the next molecule below.
Look up plant injury at 1120 g/ha: CC(Oc1ccc(Oc2ccc(Br)cc2F)cc1)C(=O)Nc1ccc(C(F)(F)F)cc1 (centres unmarked) 0

* * *

# pest or weed control at 62.5 ppm per entry
System: Wild Oats
Experiment: Postemergent activity
Type: in vivo
Conditions: Avena fatua, post-emergence, 336 h; 62.5 ppm; read-out: % Control
Hi! Could you send only the number? It should be in %, unit omitted.

// worked examples, pest or weed control at 62.5 ppm included
molecule: CCOC(=O)CC(O)C(C)Oc1ccc(Oc2ccc(Br)cc2F)cc1 (stereo not drawn)
value: 0
--
molecule: COC(=O)C=C(OC)C(C)Oc1ccc(Oc2ccc(Br)cc2F)cc1 (stereo not drawn)
value: 0
--
molecule: C=CC(=O)C(C)Oc1ccc(Oc2ccc(Br)cc2F)cc1 (stereo not drawn)
value: 0
--
molecule: CC(=O)CC(O)C(C)Oc1ccc(Oc2ccc(Br)cc2F)cc1 (stereo not drawn)
value: 0
--
molecule: COC(=O)C(C)Oc1ccc(Oc2ccc(C(F)(F)F)cc2F)cc1 (stereo not drawn)
value: 100
--
molecule: COC(=O)C(C)Oc1ccc(Oc2ccc(Br)cc2F)cc1 (racemic)
value: 100
--
molecule: COC(=O)C(C)Oc1ccc(Oc2ccc(I)cc2F)cc1 (stereo not drawn)
value: 0
--
molecule: COC(=O)[C@@H](C)Oc1ccc(Oc2ccc(Br)cc2F)cc1 [4-Bromo-(R-Enantiomer)]
value: 100

Look up pest or weed control at 62.5 ppm: CC(=O)C(C(C)=O)C(=O)C(C)Oc1ccc(Oc2ccc(Br)cc2F)cc1 (stereo not drawn) 0

* * *

System: Johnson Grass
Assay: Preemergent activity
Assay type: in vivo
Details: Sorghum halepense, pre-emergence; 0.28 kgs/hectare; read-out: Preemergence Control
quantity: pest or weed control at 280 g/ha (%)
Hi! Could you send only the number? It should be in %, unit omitted.

// worked examples, pest or weed control at 280 g/ha included
compound: COc1cccc(NC(=O)C(C)Oc2ccc(Oc3ccc(Br)cc3F)cc2)c1 (stereo not shown)
measured on: Johnson Grass
quantity: pest or weed control at 280 g/ha
value: 30
--
compound: CC(Oc1ccc(Oc2ccc(Br)cc2F)cc1)C(=O)OCCN(C)C (stereo not shown)
measured on: Johnson Grass
quantity: pest or weed control at 280 g/ha
value: 60

Please find the next compound below.
Look up pest or weed control at 280 g/ha: CC(Oc1ccc(Oc2ccc(Br)cc2F)cc1)C(=O)O (stereo not shown) 80
